System: HeLa (human cervical carcinoma)
Experiment: Cytotoxicity, MTT method
Conditions: read-out: Cytotoxicity IC50, HeLa cells, 72 h, mean ± SD (n = 3)
Description: These compounds were also tested for their in vitro cytotoxicity against three human tumor cell lines, A549 (human lung adenocarcinoma), HeLa (human cervical carcinoma) and HepG2 (human liver hepatocellular carcinoma), using the MTT method as described. The three tumor cell lines were generously provided by Kunming Institute of Zoology, Chinese Academy of Sciences. […] IC50 values were calculated by SPSS 16.0 statistic software. […]
Measured Quantity: pIC50
Lab note: report pIC50 as minus log10 of the concentration in molar units, number only.

Task: Can you share its pIC50? I mean this molecule: C=C1CC[C@]2(C(=O)O)CC[C@]3(C)C(=CCC4[C@@]5(C)CC[C@@H](O)C(C)(C)C5CC[C@]43C)C2C1 (stereo partly shown)
Result: 5.25

---

Tested on: A549 (human lung adenocarcinoma)
Assay: Cytotoxicity, MTT method
Settings: read-out: Cytotoxicity IC50, A549 cells, 72 h, mean ± SD (n = 3)
Measured Quantity: pIC50
In plain terms, pIC50 is the concentration in mol/L turned into minus its base-10 logarithm.

Task: Consider the molecule C=C1CC[C@]2(C(=O)O)CC[C@]3(C)C(=CCC4[C@@]5(C)C[C@@H](O)[C@H](O)C(C)(C)C5CC[C@]43C)C2C1 (stereo partly shown) and give its measured pIC50.
Result: 5.06

---

Assay: Cytotoxicity, MTT method
Settings: human, Cytotoxicity IC50, A549 cells, mean ± SD (n = 3)
Description: These compounds were also tested for their in vitro cytotoxicity against three human tumor cell lines, A549 (human lung adenocarcinoma), HeLa (human cervical carcinoma) and HepG2 (human liver hepatocellular carcinoma), using the MTT method as described. The three tumor cell lines were generously provided by Kunming Institute of Zoology, Chinese Academy of Sciences. […] IC50 values were calculated by SPSS 16.0 statistic software. […]
As shown below, each of these compounds has a reported IC50 at 72 h value.
Express the result in µM but write the number alone.

{"Compound": "C=C1CC[C@]2(C(=O)O)CC[C@]3(C)C(=CCC4[C@@]5(C)CC[C@@H](O)C(C)(C)C5CC[C@]43C)C2C1 (stereo partly drawn) [Compound 5, 3α-akebonoic acid]", "Unit Text": "µM", "Reported Result": 10.6}
{"Compound": "C=C1CC[C@]2(C(=O)O)CC[C@]3(C)C(=CCC4[C@@]5(C)CC[C@H](O)C(C)(C)C5CC[C@]43C)C2C1 (stereo partly drawn) [Compound 3, 3β-akebonoic acid]", "Unit Text": "µM", "Reported Result": 49.5}

// switching to the query compound
Task: Can you share its IC50 at 72 h? I mean this compound: C=C1CC[C@]2(C(=O)O)CC[C@]3(C)C(=CCC4[C@@]5(C)C[C@@H](O)[C@H](O)C(C)(C)C5CC[C@]43C)C2C1 (stereo partly drawn) [Compound 4]
Result: 8.8

---

Assay: Cytotoxicity, MTT method
Details: human, Cytotoxicity IC50, HeLa cells, mean ± SD (n = 3)
Method: These compounds were also tested for their in vitro cytotoxicity against three human tumor cell lines, A549 (human lung adenocarcinoma), HeLa (human cervical carcinoma) and HepG2 (human liver hepatocellular carcinoma), using the MTT method as described. The three tumor cell lines were generously provided by Kunming Institute of Zoology, Chinese Academy of Sciences. […] IC50 values were calculated by SPSS 16.0 statistic software. […]
Measured Quantity: IC50 at 72 h (µM)
The figure you give is taken to be in µM; do not add the unit.

Consider the reported IC50 at 72 h for these molecules:
{"Molecule": "C=C1CC[C@]2(C(=O)O)CC[C@]3(C)C(=CCC4[C@@]5(C)C[C@@H](O)[C@H](O)C(C)(C)C5CC[C@]43C)C2C1 (stereo partly drawn)", "Reported Result": 16.3}
{"Molecule": "C=C1CC[C@]2(C(=O)O)CC[C@]3(C)C(=CCC4[C@@]5(C)CC[C@H](O)C(C)(C)C5CC[C@]43C)C2C1 (stereo partly drawn)", "Reported Result": 28.6}

For the next question, use this molecule.
Task: Which value of IC50 at 72 h has been reported for C=C1CC[C@]2(C(=O)O)CC[C@]3(C)C(=CCC4[C@@]5(C)CC[C@@H](O)C(C)(C)C5CC[C@]43C)C2C1 (stereo partly drawn) in the records?
Result: 5.6
